pKi: −log10 of the molar value.
pKi data for 5-HT4 receptor (Sus scrofa) follow.
MEASURE NAME: pKi

CCNC(=O)N[C@@H](Cc1c[nH]c2ccccc12)CN1CCC(COC(=O)c2cc(Cl)c(N)cc2OC)CC1 = 8.34
CCn1c(=O)n(C(=O)OCC2CCN(C[C@H](C)NC(=O)OCc3ccccc3)CC2)c2ccccc21 = 9.07
CCn1c(=O)n(C(=O)NCC2CCN(C[C@H](CCSC)NC(=O)Nc3ccccc3)CC2)c2ccccc21 = 9.00

[P] C[C@@H](CN1CCC(COC(=O)n2c(=O)[nH]c3ccccc32)CC1)NC(=O)OCc1ccccc1
[Q] CCOC(=O)N[C@@H](CO)CN1CCC(COC(=O)c2c(OC)[nH]c3ccc(F)cc23)CC1
[R] O=C(Nc1ccccc1)N[C@@H](CO)CN1CCC(COC(=O)c2c[nH]c3ccc(F)cc23)CC1
Exam item: list the entries in increasing order of pKi. Put the labels in the requested order and list them out.
R, P, Q
(R: 8.54, P: 8.89, Q: 9.60)
